Tested on: CASKI
Assay: Primary qHTS to identify gynecologic anti-cancer compounds using libraries of approved drugs and bioactive compounds (AID 1345084); further: on the % scale 0 is the no-effect control and ±100 the full control effect; nearly all actives have a fitted effect of over 55% in size
Conditions: Gynecologic cancer cell panel viability, ATPlite luminescence, 48 h; series mostly up to 57.5 µM
Excerpt: National Center for Advancing Translational Sciences [NCATS] Assay Overview: Chemotherapeutic drug responses vary from cancer to cancer and from patient to patient. […] ATPlite is a luminescence based assay reliant on the conversion of a luciferase substrate to light in the presence of ATP. As a cytotoxic compound will suppress growth and decrease the number of cells, the concentration of ATP will decrease, and less light signal will be detected in the well. […]
Inconclusive results are not listed. Active and inactive are the calls of the source. The call rests on the fitted dose curve; in most records, active means well fitted cell-killing curve with a large enough effect; inconclusive means small, poorly fitted or top-dose-only effect, or effect the other way; inactive means flat fitted curve, though single readings scatter.
observable: outcome

>>> recorded_result("N[C@@H](Cc1cc(I)c(Oc2ccc(O)c(I)c2)c(I)c1)C(=O)O")
"inactive"
>>> recorded_result("CC(C)(C)c1ccc(CN2CCN(C(c3ccccc3)c3ccc(Cl)cc3)CC2)cc1 (centres undefined)")
"inactive"
>>> recorded_result("C=C1[C@H](CO)[C@@H](O)C[C@@H]1n1cnc2c(=O)[nH]c(N)nc21")
"inactive"
>>> recorded_result("CN(C)CCCSc1ccccc1NC(=O)/C=C/c1ccccc1")
"inactive"

----------
Tested on: CP215
Experiment: qHTS profiling for inhibitors of Plasmodium falciparum proliferation (AID 504749); further: nearly all actives have a fitted effect of over 60% in size
Conditions: P. falciparum in erythrocytes, SYBR Green DNA, 72 h; series mostly up to 28.7 µM
Procedure: NIH National Institute of Allergy and Infectious Diseases [NIAID] NIH Chemical Genomics Center [NCGC] […] Because mature erythrocytes lack DNA, only Plasmodium-derived DNA is detected. NCGC Assay Protocol Summary: The SYBR Green viability assay was adapted from a method described previously (Plouffe et al., 2008). […] The following morning, fluorescence intensity at 485(14) nm excitation and 535(25) nm emission wavelengths was measured on an EnVision (Perkin Elmer) plate reader. […]
Inconclusive results are not listed. Calls of active or inactive are those of the source. Calls follow the shape of the dose curve; as a rule, active = well fitted inhibition curve with a large enough effect; inconclusive = small, poorly fitted or top-dose-only effect; inactive = flat fitted curve, though single readings scatter.
Classes used: Y (active), N (inactive)

>>> class_label("O=C(Nc1ccc(O)cc1)c1ccccc1O")
"N"
>>> class_label("NC(=S)N=Nc1ccc(NN=C(N)N)cc1")
"Y"
>>> class_label("c1ccc2c(c1)OCC(CN1CCCCC1)O2 (configuration not stated)")
"N"
>>> class_label("O=C(CCCN1CCC(C(=O)c2ccc(F)cc2)CC1)c1ccc(F)cc1")
"N"
>>> class_label("NC(=O)Oc1ccc(Cc2ccccc2)cc1")
"N"
>>> class_label("O=C1CCC(c2ccccc2)(C2CCN(Cc3ccccc3)CC2)C(=O)N1 (configuration not stated)")
"N"
>>> class_label("NCC[C@H](O)C(=O)N[C@@H]1C[C@H](N)[C@@H](O[C@H]2O[C@H](CN)CC[C@H]2N)[C@H](O)[C@H]1O[C@H]1O[C@H](CO)[C@@H](O)[C@H](N)[C@H]1O")
"N"
>>> class_label("COC1=C(OC)C(=O)C(C/C=C(\\C)CC/C=C(\\C)CC/C=C(\\C)CC/C=C(\\C)CC/C=C(\\C)CC/C=C(\\C)CC/C=C(\\C)CC/C=C(\\C)CC/C=C(\\C)CCC=C(C)C)=C(C)C1=O")
"N"
>>> class_label("O=P(O)(O)OP(=O)(O)O")
"N"
>>> class_label("S=C=Nc1ccc(N=C=S)cc1")
"N"
>>> class_label("CC/C=C\\C/C=C\\C/C=C\\CCCCCCCC(=O)O")
"N"
>>> class_label("N=C(N)n1cccn1")
"N"
>>> class_label("CC(C)NCC(O)COc1ccccc1-n1cccc1 (configuration not stated)")
"N"
>>> class_label("CC12CCC(C1)C(C)(C)C2=O (configuration not stated)")
"N"
>>> class_label("O=S(=O)(O)CC(S)CS (configuration not stated)")
"N"
>>> class_label("c1ccc(-n2cnnn2)cc1")
"N"
>>> class_label("CC(C)=CCC/C(C)=C/C=C/C(C)=C/C=C/C(C)=C/C=C/C=C(C)/C=C/C=C(C)/C=C/C=C(\\C)CCC=C(C)C")
"N"
>>> class_label("OC[C@H]1O[C@@](CO)(O[C@H]2O[C@H](CO)[C@@H](O)[C@H](O)[C@H]2O)[C@@H](O)[C@@H]1O")
"N"
>>> class_label("Cc1ncc(COP(=O)(O)O)c(CN)c1O")
"N"
>>> class_label("CCCCCCCCCCCCCCCCCCCCCC(=O)Nc1ccn([C@@H]2O[C@H](CO)[C@@H](O)[C@@H]2O)c(=O)n1")
"N"
>>> class_label("O=P(O)(O)OC[C@H]1O[C@](O)(COP(=O)(O)O)[C@@H](O)[C@@H]1O")
"N"
>>> class_label("CCOC(=O)Cc1ccc(-c2ccccc2)cc1")
"N"
>>> class_label("CCCCC(CC)CCC(CC(C)C)OS(=O)(=O)O (configuration not stated)")
"N"
>>> class_label("[O-][N+](=Nc1ccccc1)c1ccccc1")
"N"
>>> class_label("O=C(NNCNNC(=O)c1ccncc1)c1ccncc1")
"N"
>>> class_label("CC(CNC(=O)c1cccnc1)NC(=O)c1cccnc1 (configuration not stated)")
"N"
>>> class_label("CC(C)O")
"N"
>>> class_label("Nc1ncnc2c1ncn2CCOCP(=O)(O)O")
"N"
>>> class_label("CNC(=O)c1c(I)c(C(=O)NCC(=O)Nc2c(I)c(C(=O)O)c(I)c(C(=O)NCCO)c2I)c(I)c(N(C)C(C)=O)c1I")
"N"
>>> class_label("CN1c2c(nc(N)[nH]c2=O)NCC1CNc1ccc(C(=O)NC(CCC(=O)O)C(=O)O)cc1 (configuration not stated)")
"N"
>>> class_label("C=CC(=O)O")
"N"
>>> class_label("CN(C)CCCSc1ccccc1NC(=O)/C=C/c1ccccc1")
"N"
>>> class_label("O=[N+]([O-])c1c(Cl)cccc1-c1c[nH]cc1Cl")
"N"
>>> class_label("COc1cc(S(C)=O)ccc1-c1nc2ncccc2[nH]1 (configuration not stated)")
"N"
>>> class_label("C(=C\\c1ccncc1)/c1ccccc1")
"N"
>>> class_label("CN1CCC(OC(=O)C(Oc2ccc(Cl)cc2)Oc2ccc(Cl)cc2)CC1")
"N"
>>> class_label("OCC1(CO)COC(C(Cl)(Cl)Cl)OC1")
"N"
>>> class_label("CC1CCC(NC(=O)N(CCCl)N=O)CC1 (configuration not stated)")
"N"
>>> class_label("CCCCC[C@H](O)/C=C/[C@H]1[C@H](O)CC(=O)[C@@H]1C/C=C\\CCCC(=O)O")
"N"
>>> class_label("O=S(=O)(O)CCCS(=O)(=O)O")
"N"
>>> class_label("C[Se]CC[C@H](N)C(=O)O")
"N"
>>> class_label("CCc1ccc(S(=O)(=O)O)cc1")
"N"

----------
assay: qHTS of pediatric cancer cell lines to identify multiple opportunities for drug repurposing: Primary screen for Saos-2 cells (AID 1347097); conditions: Saos-2 viability, CellTiter-Glo ATP luminescence, 48 h; series mostly up to 46 µM; further: nearly all actives have a fitted effect of over 40% in size
Results filed as inconclusive are left out. Activity calls are given as the source filed them. Calls follow the shape of the dose curve; as a rule, active = well fitted cell-killing curve with a large enough effect; inconclusive = small, poorly fitted or top-dose-only effect; inactive = no such curve, though single readings can be large or run the other way.
Classes used: 1 = active, -1 = inactive

>>> class_label("O=C(O)CCC(=O)c1ccc(-c2ccccc2)cc1")
-1
>>> class_label("O=C1c2ccccc2C(=O)c2c1ccc(O)c2O")
1
>>> class_label("Oc1ccc(/C=C/c2cc(O)cc(O)c2)cc1")
-1
>>> class_label("Nc1ccc(N=Nc2ccccc2)c(N)n1")
-1

----------
test system: KB-3-1; experiment: Cytotoxic Profiling of Annotated Libraries Using Quantitative High-Throughput Screening (AID 1296008); conditions: Five cell lines viability, CellTiter-Glo ATP luminescence, 48-72 h; hits give low values; further: on the % scale 0 is the no-effect control and ±100 the full control effect; nearly all actives have a fitted effect of over 60% in size
Records with an inconclusive call do not appear.
Listed below: max response values for each entry.
observable: max response (%)

>>> recorded_result("CCCCCCCCCCCC(=O)OCC(O)CO (stereo not given)")
4.65
>>> recorded_result("CN1CCN(C(c2ccccc2)c2ccc(Cl)cc2)CC1 (stereo not given)")
0.99
>>> recorded_result("F[Si-2](F)(F)(F)(F)F")
6.45
>>> recorded_result("C=C1c2c(Cl)ccc(O)c2C(O)=C2C(=O)[C@]3(O)C(O)=C(C(N)=O)C(=O)[C@@H](N(C)C)[C@@H]3[C@@H](O)[C@H]12")
7.79
>>> recorded_result("COC(=O)CCC[N+](C)(C)C")
-6.27
>>> recorded_result("CCC(C(=O)NC(N)=O)c1ccccc1 (stereo not given)")
4
>>> recorded_result("CN1C(=O)C[C@@H](C(=O)N[C@@H](Cc2cnc[nH]2)C(=O)N2CCC[C@H]2C(N)=O)NC1=O")
5.84
>>> recorded_result("CC12CCC(C[N+](C)(CCC[N+](C)(C)C)C1)C2(C)C (stereo not given)")
-0.0096
>>> recorded_result("CC(=O)Nc1c(I)c(C(=O)N[C@H]2C(O)O[C@H](CO)[C@@H](O)[C@@H]2O)c(I)c(N(C)C(C)=O)c1I (stereo not given in full)")
-7.33
>>> recorded_result("C=C1[C@@H]2CC[C@@H](C2)C1(C)C")
-10.2
>>> recorded_result("O=C[C@H](O)[C@@H](O)[C@@H](O)[C@H](O)CO")
-13.6
>>> recorded_result("CO/N=C(\\C(=O)N[C@@H]1C(=O)N2C(C(=O)O)=C(CSC(=O)c3ccco3)CS[C@H]12)c1csc(N)n1")
1.31
>>> recorded_result("Cc1cccc(C)c1NC(=O)NC1=CCCN1C")
-2.58
>>> recorded_result("NC(Cc1ccccc1)C(=O)O (stereo not given)")
4.99
>>> recorded_result("CC(C)c1nc(N(C)S(C)(=O)=O)nc(-c2ccc(F)cc2)c1/C=C/C(O)CC(O)CC(=O)O (stereo not given)")
0.926
>>> recorded_result("CC(C)(C)NC[C@H](O)COc1ccccc1C1CCCC1")
1.39
>>> recorded_result("OCc1ccccc1")
7.88
>>> recorded_result("CO[C@H]1O[C@@H]2O[C@@]3(C)CC[C@H]4[C@H](C)CC[C@@H]([C@H]1C)[C@@]24OO3")
1.88
>>> recorded_result("NC(=O)[C@@H]1CCCN1C(=O)[C@H](Cc1cnc[nH]1)NC(=O)[C@@H]1CCC(=O)N1")
0.162
>>> recorded_result("FCOC(C(F)(F)F)C(F)(F)F")
6.78
>>> recorded_result("O=C(O)CCC/C=C\\C[C@@H]1[C@@H](/C=C/[C@@H](O)COc2cccc(Cl)c2)[C@H](O)C[C@@H]1O")
-2.7
>>> recorded_result("C[Se]CC[C@H](N)C(=O)O")
0.415
>>> recorded_result("Cn1c(O)c(N=NC(N)=S)c2ccccc21")
8.19
>>> recorded_result("CC(=O)N[C@@H](C=O)[C@@H](O)[C@H](O)[C@H](O)CO")
2.45
>>> recorded_result("CCCCC/C=C\\CCC(=O)N[C@H]1[C@H](Oc2c3cc4cc2Oc2ccc(cc2Cl)[C@@H](O[C@@H]2O[C@H](CO)[C@@H](O)[C@H](O)[C@H]2NC(C)=O)[C@@H]2NC(=O)[C@H](NC(=O)[C@@H]4NC(=O)[C@H]4NC(=O)[C@@H](Cc5ccc(c(Cl)c5)O3)NC(=O)[C@H](N)c3ccc(O)c(c3)Oc3cc(O)cc4c3)c3ccc(O)c(c3)-c3c(O[C@H]4O[C@H](CO)[C@@H](O)[C@H](O)[C@@H]4O)cc(O)cc3[C@@H](C(=O)O)NC2=O)O[C@H](CO)[C@@H](O)[C@@H]1O")
-12.7
>>> recorded_result("CC(C)NCC(O)COc1ccccc1-n1cccc1 (stereo not given)")
24.4
>>> recorded_result("CCOc1ccc(S(=O)(=O)O)c2cccnc12")
5.36
>>> recorded_result("CC(=NCc1ccccc1)c1ccccc1O")
-11.4
>>> recorded_result("CO/N=C(\\C(=O)N[C@@H]1C(=O)N2C(C(=O)[O-])=C(C[n+]3ccc(N)n3CCO)CS[C@H]12)c1csc(N)n1")
5.24
>>> recorded_result("CC1(C)[C@H]2CC[C@]1(C)[C@H](O)C2")
-0.648
>>> recorded_result("Cc1cc(=O)c(C(=O)N[C@@H](C(=O)N[C@@H]2C(=O)N3C(C(=O)O)=C(CSc4nnnn4C)CS[C@H]23)c2ccc(O)cc2)c[nH]1")
0.794
>>> recorded_result("CC(=O)c1ccc2c(c1)N(CCCN1CCN(CCO)CC1)c1ccccc1S2")
1.1
>>> recorded_result("CCN(CC)C(=O)c1cccnc1")
-8.56
>>> recorded_result("CC1=C[C@H](O)CC(C)(C)[C@H]1/C=C/C(C)=C/C=C/C(C)=C/C=C/C=C(C)/C=C/C=C(C)/C=C/C1=C(C)C[C@@H](O)CC1(C)C")
-11
>>> recorded_result("O=C(O)/C=C/C(=O)Nc1ccc(S(=O)(=O)Nc2nccs2)cc1")
-6.18
>>> recorded_result("COC(=O)c1ccccc1O")
-4.17
>>> recorded_result("NC(=O)Oc1ccc(Cc2ccccc2)cc1")
11.9
>>> recorded_result("Cn1c(=O)c2c(ncn2CCOC(=O)C(C)(C)Oc2ccc(Cl)cc2)n(C)c1=O")
-10.9
>>> recorded_result("CCCCC(CC)COS(=O)(=O)O (stereo not given)")
-16.9
>>> recorded_result("Nc1ncnc2c1ncn2CCOCP(=O)(O)O")
-6.33
